biological target: GlcNAc(a1-4)Gal(b1-4)GlcNAc(b1-3)Gal(b1-4)GlcNAc(b1-3)Gal(b1-4)GlcNAc; assay: glycan array binding signal (z-score within array); higher = stronger binding; conditions: glycan notation: IUPAC condensed, linker removed
This excerpt belongs to a sample that is enriched for the strongest signals.
reported_endpoint: glycan array binding signal (z-score)
One number for each entry.

// each binder listed below needs its glycan array binding signal (z-score)
1. AAA (Anguilla anguilla), Q7SIC1 (protein) VIPEGYTQENVAVRGKATQSAQLRGEHAANSEASNAIDGNRDSNFYHGSCTHSSGQANPWWRVDLLQVYTITSVTITNRGDCCGERISGAEINIGQHLASNGVNNPECSVIGSMATGETKTFHCPAPMIGRYVVTYLPTSESLHLCEVEVNVDKPAAA
2. AT1G15820(NC) (Arabidopsis thaliana) (protein) MAMAVSGAVLSGLGSSFLTGGKRGATALASGVGDAIAPFSFGSLLGTQLLLMGWVESKRWVDFFNPDSQSVEWATPWSKTAENFANYTGDQGYPGGRFFDPLGLAGKNRDGVYEPDFEKLERLKLAEIKHSRLAMVAMLIFYFEAGQGKTPLGALGL
3. ArathEULS3 TAP (Arabidopsis thaliana) (protein) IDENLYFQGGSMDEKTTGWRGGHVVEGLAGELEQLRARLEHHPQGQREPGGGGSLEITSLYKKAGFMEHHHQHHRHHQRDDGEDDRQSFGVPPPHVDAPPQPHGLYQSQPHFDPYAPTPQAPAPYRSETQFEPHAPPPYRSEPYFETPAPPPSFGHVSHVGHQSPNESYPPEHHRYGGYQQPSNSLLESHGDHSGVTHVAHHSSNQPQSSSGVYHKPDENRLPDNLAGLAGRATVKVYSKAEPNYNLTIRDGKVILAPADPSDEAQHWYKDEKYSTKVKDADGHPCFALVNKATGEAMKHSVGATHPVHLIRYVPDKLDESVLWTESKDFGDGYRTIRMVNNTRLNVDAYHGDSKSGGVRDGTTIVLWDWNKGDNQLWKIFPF
4. HPAIIITrx (Helix pomatia), Q1KM18 (protein) MLFVTIISLGLLAIVHGQCALKTIAFSAAIDREQTFDANQVVIYDIVITNHGNAYDNSTGLFTAPVDGMYSFQLNLLTIKEKEGWLELVHNGQLKVSVYAKQDSTYDSSSNSVIIKMKEGDRVNVRAHKKSGLFGRDDELYNTFSGHFLSGL
5. ArathEULS3 (Arabidopsis thaliana), Q945P1 (protein) MEHHHQHHRHHQRDDGEDDRQSFGVPPPHVDAPPQPHGLYQSQPHFDPYAPTPQAPAPYRSETQFEPHAPPPYRSEPYFETPAPPPSFGHVSHVGHQSPNESYPPEHHRYGGYQQPSNSLLESHGDHSGVTHVAHHSSNQPQSSSGVYHKPDENRLPDNLAGLAGRATVKVYSKAEPNYNLTIRDGKVILAPADPSDEAQHWYKDEKYSTKVKDADGHPCFALVNKATGEAMKHSVGATHPVHLIRYVPDKLDESVLWTESKDFGDGYRTIRMVNNTRLNVDAYHGDSKSGGVRDGTTIVLWDWNKGDNQLWKIFPFILEQKLISEEDLNSAVDHHHHHH

1. 2.29
2. -0.156
3. 0.236
4. 2.06
5. -0.273
